// reported inhibition at 10 µM for each item listed
# TARGET UNDER TEST: recombinant human PARP2 (Homo sapiens, UniProt Q9UGN5)
# Sequence (Q9UGN5 whole entry): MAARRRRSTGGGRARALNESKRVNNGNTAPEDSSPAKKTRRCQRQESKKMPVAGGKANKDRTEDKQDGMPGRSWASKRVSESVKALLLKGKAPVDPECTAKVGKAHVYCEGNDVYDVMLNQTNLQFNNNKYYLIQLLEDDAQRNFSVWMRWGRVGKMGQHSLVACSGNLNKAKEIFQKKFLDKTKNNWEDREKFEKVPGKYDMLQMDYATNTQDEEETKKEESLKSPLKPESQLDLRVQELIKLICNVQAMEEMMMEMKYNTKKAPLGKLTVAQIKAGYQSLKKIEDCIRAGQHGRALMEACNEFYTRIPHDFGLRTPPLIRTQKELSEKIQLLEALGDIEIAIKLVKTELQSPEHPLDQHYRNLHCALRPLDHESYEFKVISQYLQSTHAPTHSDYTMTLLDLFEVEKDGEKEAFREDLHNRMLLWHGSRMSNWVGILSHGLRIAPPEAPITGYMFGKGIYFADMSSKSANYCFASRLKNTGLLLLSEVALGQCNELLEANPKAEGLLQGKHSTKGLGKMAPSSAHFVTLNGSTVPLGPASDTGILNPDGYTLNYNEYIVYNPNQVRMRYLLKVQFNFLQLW
# PROTOCOL SUMMARY: PARP2 fluorescence polarization binding assay
# MEASUREMENT CONDITIONS: read-out: PARP2 % inh at 10 μM
Where a name gives a salt, the structure may show the parent alone.

Below: 2 compounds and their reported inhibition at 10 µM.
[[record]]
compound = "CCNC(=O)Nc1cc(CN2CCN(c3ccc(C(=O)NC)nc3F)CC2)ncn1 [Compound 229, formate]"
assay_endpoint = "inhibition at 10 µM"
observed_measurement = "< 33%"

[[record]]
compound = "CCNC(=O)Nc1nccc(CN2CCN(c3ccc(C(=O)NC)nc3C)CC2)c1C"
assay_endpoint = "inhibition at 10 µM"
observed_measurement = "< 33%"


## Task Returns the measured inhibition at 10 µM for the input compound. Input: CCNC(=O)Nc1cc(CN2CCN(c3ccc(C(=O)NC)nc3C)CC2)c(C)cn1 [Compound 70, formate]
## Result < 33%
